Target: KRAS G12D/RAF1 (Homo sapiens, UniProt P01116, G12D)
Construct: KRAS (1-169) proteins were expressed in E. coli at 18° C; His6-MBP (N, cleaved yes)
Sequence (P01116 1-169 isoform P01116-2 G12D): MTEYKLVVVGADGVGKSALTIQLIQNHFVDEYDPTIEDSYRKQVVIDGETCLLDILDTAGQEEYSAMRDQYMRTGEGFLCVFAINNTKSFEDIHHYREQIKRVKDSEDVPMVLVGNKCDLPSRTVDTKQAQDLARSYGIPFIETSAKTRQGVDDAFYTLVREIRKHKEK
Assay: Protein-protein interaction (PPI) HTRF assay KRAS G12D/RAF1
Settings: KRAS G12D/RAF1, GppNHp-loaded KRAS; 30 minutes pre-incubation
Source text: Biotinylated KRAS wt and KRAS G12DNV proteins were expressed and purified in conditions similar to those previously reported (Tran, et al., 2021) (Zhang, et al., 2020). […] When RAS proteins are in the active GTP-bound conformation, they bind the effector protein RAF1 at the N-terminus Ras-binding domain (RBD, residues 52-131) (Tran, et al., 2021). Homogenous time resolved fluorescence (HTRF) was used to monitor the interaction between wt or mutant KRAS and RAF1 or wt NRAS and RAFT. […]
MEASUREMENT TYPE: IC50

# lookup: IC50 of `CN1Cc2c(nc(OC[C@@]34CCCN3C[C@H](F)C4)nc2N2C[C@H]3CC[C@@H](C2)[C@@H]3N)C[C@]12CCCc1ccccc12`
> 100 µM

Then this compound: `CN(C)C(=O)c1nn2c(c1Cl)CN(c1nc(OC[C@@]34CCCN3C[C@H](F)C4)nc3c1CN(C)[C@@]1(CCc4cccc(Cl)c41)C3)CCC2`
10 to 100 µM

Then this compound: F[C@H]1CN2CCC[C@@]2(COc2nc3c(c(N4C[C@H]5CC[C@@H](C4)N5)n2)COC2(CCCc4c(Br)cccc42)C3)C1 (stereo partly drawn)
> 100 µM

* * *

Biological target: GST-tagged KRAS G12D (2-169) (Homo sapiens, UniProt P01116, G12D)
Construct: GST-tagged KRAS^G12D (2-169, Reaction Biology, MSC-11-539); purchased Reaction Biology MSC-11-539 (KRAS G12D); MSC-11-502 (SOS1cat)
Sequence (P01116 2-169 isoform P01116-2 G12D): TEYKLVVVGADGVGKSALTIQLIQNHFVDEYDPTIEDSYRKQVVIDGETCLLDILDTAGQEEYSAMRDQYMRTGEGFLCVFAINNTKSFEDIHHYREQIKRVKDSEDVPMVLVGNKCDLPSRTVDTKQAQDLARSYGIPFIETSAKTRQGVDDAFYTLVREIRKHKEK
Experiment: Nucleotide exchange assay (NEA), HTRF of SOS-mediated GTP-DY-647P1 binding
Format: biochemical
Settings: 5 nM GST-KRAS G12D, 20 nM SOScat, 150 nM GTP; compound 1 h at RT
From the text: This activity is tightly regulated by GTPase activating proteins (GAPs) and guanine nucleotide exchange factors (GEFs). GEFs, such as SOS1/2, activate Ras proteins by exchanging GDP for GTP, thus returning Ras to its active conformation (Simanshu, Nissley, & McCormick, 2017). […] Homogenous time resolved fluorescence (HTRF) was used to detect SOS-mediated binding of a fluorescent GTP analog, GTP-DY-647P1 (Jena Biosciences NU-820-647P1) to GST-tagged KRAS^G12D (2-169, Reaction Biology, MSC-11-539). […]
MEASUREMENT TYPE: IC50

Observed IC50 on GST-tagged KRAS G12D (2-169) (Homo sapiens, UniProt P01116, G12D) for Cc1noc(-c2cc3n(n2)CCCN(c2nc(OC[C@@]45CCCN4C[C@H](F)C5)nc4c2CN(C)[C@@]2(CCc5cccc(F)c52)C4)C3)n1 [Compound 73] , please.
10 to 100 nM

Then this compound: N#Cc1ccc2c(c1)C1(CCC2)Cc2nc(OC[C@@]34CCCN3C[C@H](F)C4)nc(N3CCCCCC3)c2CO1 (stereo partly drawn) [Compound 20]
1000 to 20000 nM

Then this compound: CN1Cc2c(nc(OC[C@@]34CCCN3C[C@H](F)C4)nc2N2CCC[C@]3(C2)NC(=O)NC3=O)C[C@]12CCc1cccc(F)c12 [Compound 66]
10 to 100 nM

Then this compound: CN1Cc2c(nc(OC[C@@]34CCCN3C[C@H](F)C4)nc2N2CCC[C@]3(C2)NC(=O)NC3=O)C[C@]12CCc1c(F)cccc12 [Compound 68]
10 to 100 nM

Then this compound: CN1Cc2c(nc(OC[C@@]34CCCN3C[C@H](F)C4)nc2N2CCCn3nc(-c4cccc(O)n4)cc3C2)C[C@]12CCCc1ccccc12 [Compound 92]
100 to 1000 nM

Then this compound: F[C@H]1CN2CCC[C@@]2(COc2nc3c(c(N4CCCCCC4)n2)COC2(COCc4ccccc42)C3)C1 (stereo partly drawn) [Compound 25]
1000 to 20000 nM

* * *

Target: KRAS G12D/RAF1 (Homo sapiens, UniProt P01116, G12D)
Construct: KRAS (1-169) proteins were expressed in E. coli at 18° C; His6-MBP (N, cleaved yes)
Experiment: Protein-protein interaction (PPI) HTRF assay KRAS G12D/RAF1
Conditions: KRAS G12D/RAF1, GppNHp-loaded KRAS; 30 minutes pre-incubation
Assign IC50 to each entry below.

# lookup: IC50 of CN1Cc2c(nc(OC[C@@]34CCCN3C[C@H](F)C4)nc2N2CCC[C@]3(C2)NC(=O)NC3=O)C[C@]12CCc1ccccc12 [Compound 60]
10 to 100 µM

Then this molecule: CN(C)C(=O)c1cc2n(n1)CCCN(c1nc(OC[C@@]34CCCN3C[C@H](F)C4)nc3c1CO[C@]1(CCc4c(Cl)cccc41)C3)C2 [Compound 27A]
> 100 µM

Then this molecule: F[C@H]1CN2CCC[C@@]2(COc2nc3c(c(N4CCCCCC4)n2)COC2(CCCc4c(Br)cccc42)C3)C1 (stereo partly drawn) [Compound 5]
10 to 100 µM

* * *

Tested on: AGS (KRAS G12D) cells, phospho-ERK
Test: pERK In Cell Western (ICW) assay (Method B)
Format: cell-based
Conditions: Homo sapiens, 3 hours
Assign IC50 to each entry below.

# lookup: IC50 of OC1CCCN(c2nc(OC[C@@]34CCCN3C[C@H](F)C4)nc3c2COC2(CCCc4ccc(Cl)cc42)C3)CC1 (stereo partly shown)
1 to 10 µM

Then this compound: `CN(C)C(=O)c1nn2c(c1Cl)CN(c1nc(OC[C@@]34CCCN3C[C@H](F)C4)nc3c1CN(C)[C@@]1(CCc4c(F)cccc41)C3)CCC2`
0.01 to 0.1 µM

Then this compound: `CN(C)C(=O)c1nn2c(c1Cl)CN(c1nc(OC[C@@]34CCCN3C[C@H](F)C4)nc3c1CN(C)[C@@]1(CCc4c(F)ccc(F)c41)C3)CCC2`
0.01 to 0.1 µM

Then this compound: `C#Cc1c(C(=O)N(C)C)nn2c1CN(c1nc(OC[C@@]34CCCN3C[C@H](F)C4)nc3c1CN(C)[C@@]1(CCCc4ccccc41)C3)CCC2`
0.01 to 0.1 µM

Then this compound: `O=C(c1nn2c(c1Cl)CN(c1nc(OC[C@@]34CCCN3C[C@H](F)C4)nc3c1CO[C@@]1(CCc4c(Cl)cccc41)C3)CCC2)N1CCOCC1`
0.1 to 1 µM

Then this compound: `Cc1nc(-c2nn3c(c2Cl)CN(c2nc(OC[C@@]45CCCN4C[C@H](F)C5)nc4c2CN(C)[C@@]2(CCCc5ccccc52)C4)CCC3)no1`
0.1 to 1 µM

Then this compound: `CN1Cc2c(nc(OC[C@@]34CCCN3C[C@H](F)C4)nc2N2CCC[C@]3(C2)NC(=O)NC3=O)C[C@]12CCc1c(F)ccc(F)c12`
> 10 µM

Then this compound: Oc1ccc2c(c1)C1(CCC2)Cc2nc(OC[C@@]34CCCN3C[C@H](F)C4)nc(N3CCCC(O)CC3)c2CO1 (stereo partly shown)
> 10 µM

Then this compound: `CN1Cc2c(nc(OC[C@@]34CCCN3C[C@H](F)C4)nc2N2CCCn3nc(-c4nnnn4C)c(Cl)c3C2)C[C@]12CCCc1ccccc12`
0.1 to 1 µM

Then this compound: CN(C)C(=O)c1cc2n(n1)CCCN(c1nc(OC[C@@]34CCCN3C[C@H](F)C4)nc3c1COC1(CCCc4c(Cl)cc(O)cc41)C3)C2 (mixture of isomers)
1 to 10 µM

Then this compound: `CN(C)C(=O)c1nn2c(c1Cl)CN(c1nc(OC[C@@]34CCCN3C[C@H](F)C4)nc3c1CN(C)[C@@]1(CCc4c(Cl)cccc41)C3)CCC2`
0.1 to 1 µM

Then this compound: `CN(C)C(=O)c1nn2c(c1Cl)CN(c1nc(OC[C@@]34CCCN3C[C@H](F)C4)nc3c1CN(C)[C@@]1(CCc4cccc(O)c41)C3)CCC2`
0.01 to 0.1 µM

Then this compound: CN(C)C(=O)c1cc2n(n1)CCCN(c1nc(OC[C@@]34CCCN3C[C@H](F)C4)nc3c1CN(C)[C@@]1(CCCc4ccc(O)cc41)C3)C2 [Compound 39A]
0.1 to 1 µM

Then this compound: C=C1CN2CCCC2(COc2nc3c(c(N4CCCn5nc(C(=O)N(C)C)c(Cl)c5C4)n2)CO[C@@]2(CCc4c(Cl)cccc42)C3)C1 (mixture of isomers)
0.1 to 1 µM

Then this compound: CN(C)CC1(COc2nc3c(c(N4CCCn5nc(C(=O)N(C)C)c(Cl)c5C4)n2)CN(C)[C@@]2(CCCc4ccccc42)C3)CC1(F)F (stereo partly shown)
1 to 10 µM

Then this compound: Oc1ccc(Cl)c2c1C1(CC2)Cc2nc(OC[C@@]34CCCN3C[C@H](F)C4)nc(N3CCCCCC3)c2CO1 (mixture of isomers)
1 to 10 µM

Then this compound: `CN(C)C(=O)c1nn2c(c1Cl)CN(c1nc(OCC3(CN4CCOCC4)CC3)nc3c1CO[C@@]1(CCc4c(Cl)cccc41)C3)CCC2`
1 to 10 µM

Then this compound: `CN(C)C(=O)c1nn2c(c1Cl)CN(c1nc(OC[C@@]34CCCN3C[C@H](F)C4)nc3c1CN(C)[C@@]1(CCCc4ccccc41)C3)CCC2`
0.01 to 0.1 µM

Then this compound: F[C@H]1CN2CCC[C@@]2(COc2nc3c(c(N4C[C@H]5CC[C@@H](C4)N5)n2)COC2(CCCc4c(Br)cccc42)C3)C1 (stereo partly shown)
> 10 µM

Then this compound: `Cc1nnc(-c2nn3c(c2Cl)CN(c2nc(OC[C@@]45CCCN4C[C@H](F)C5)nc4c2CN(C)[C@@]2(CCCc5ccccc52)C4)CCC3)n1C`
0.01 to 0.1 µM

Then this compound: `CN1Cc2c(nc(OC[C@@]34CCCN3C[C@H](F)C4)nc2N2CCC[C@]3(C2)NC(=O)NC3=O)C[C@]12CCc1ccccc12`
> 10 µM

Then this compound: F[C@H]1CN2CCC[C@@]2(COc2nc3c(c(N4CCCCCC4)n2)COC2(CCc4c(Cl)cccc42)C3)C1 (stereo partly shown)
> 10 µM

Then this compound: `CN1Cc2c(nc(OC[C@@]34CCCN3C[C@H](F)C4)nc2N2CCC[C@]3(C2)NC(=O)NC3=O)C[C@]12CCc1cccc(F)c12`
> 10 µM

Then this compound: `CN(C)C(=O)c1cc2n(n1)CCCN(c1nc(OC[C@@]34CCCN3C[C@H](F)C4)nc3c1CN(C)[C@@]1(CCCc4ccccc41)C3)C2`
0.1 to 1 µM

Then this compound: OC1CCCN(c2nc(OC[C@@]34CCCN3C[C@H](F)C4)nc3c2COC2(CCCc4c(Cl)cccc42)C3)CC1 (stereo partly shown)
> 10 µM
